Recorded inhibition at 1 µM by entry
Target: panel of 255 wild-type kinases (Homo sapiens)
Sequence (Q9UQM7 whole entry): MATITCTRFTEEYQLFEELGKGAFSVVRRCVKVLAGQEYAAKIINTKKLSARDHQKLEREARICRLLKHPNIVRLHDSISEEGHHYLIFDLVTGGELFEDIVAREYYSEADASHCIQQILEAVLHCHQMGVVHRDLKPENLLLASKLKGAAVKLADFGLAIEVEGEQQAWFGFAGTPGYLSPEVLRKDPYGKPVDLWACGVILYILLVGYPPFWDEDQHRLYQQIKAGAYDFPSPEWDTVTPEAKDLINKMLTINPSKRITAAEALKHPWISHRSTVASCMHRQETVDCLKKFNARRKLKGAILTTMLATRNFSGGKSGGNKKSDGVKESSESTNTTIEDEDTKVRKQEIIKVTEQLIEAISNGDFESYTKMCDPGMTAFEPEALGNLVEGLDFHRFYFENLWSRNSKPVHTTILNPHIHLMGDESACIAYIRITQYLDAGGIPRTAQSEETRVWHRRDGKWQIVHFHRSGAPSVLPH
Test: Kinase panel profiling at 1 µmol/L (MSA or IMAP), percentage inhibition
Type: biochemical
Details: CaMK2α kinase assay; 1 µmol/L single concentration; read-out: %-inhibition CaMK2α

{"columns": ["given_smiles", "inhibition at 1 µM, %"],
 "data": [
  ["COc1ccc(CN2C3CC2CN(c2ccc(-c4cc(OCC(C)(C)O)cn5ncc(C#N)c45)cn2)C3)cn1", 1.43],
  ["CO[C@]1(C(=O)N[C@@H](C)c2ccc(-n3cc(F)cn3)nc2)CC[C@H](c2nc(C)cc(Nc3cc(C)[nH]n3)n2)CC1", -1.59],
  ["Cc1nc(NC(=O)N2CCC[C@H]2C(N)=O)sc1-c1ccnc(C(C)(C)C(F)(F)F)c1", -1.21],
  ["Cn1cc(-c2cc3c(N4CCN(c5ncc([C@@](C)(N)c6ccc(F)cc6)cn5)CC4)ncnn3c2)cn1", -2.45],
  ["C[C@H]1Oc2cc(cnc2N)-c2c(nn(C)c2C#N)CN(C)C(=O)c2ccc(F)cc21", 3.76],
  ["Cn1cnc2c(F)c(Nc3ccc(Br)cc3F)c(C(=O)NOCCO)cc21", -4.55],
  ["CN1CCN(c2ccc(C(=O)Nc3n[nH]c4ccc(Cc5cc(F)cc(F)c5)cc34)c(NC3CCOCC3)c2)CC1", 12],
  ["CCN1C(=O)N(c2c(F)c(OC)cc(OC)c2F)Cc2cnc3[nH]c(CN4CCOCC4)cc3c21", 5]
]}
